Item-by-item account of pKi
assay: Displacement of [3H]-epibatidine from Aplysia californica Acetylcholine-binding protein measured after 1 hr by liquid scintillation counter
Positions of bridges follow the written chain, without caps; N, C: chain ends. Non-standard residues stand in square brackets, D forms with d. Residues, ends and D or L forms follow the SMILES beside them. sY = N[C@@H](Cc1ccc(OS(=O)(=O)O)cc1)C(=O)O
quantity: pKi

* CC(C)C[C@@H]1NC(=O)[C@H](CO)NC(=O)[C@@H]2CSSC[C@@H](C(N)=O)NC(=O)[C@H](Cc3ccc(O)cc3)NC(=O)[C@H](CC(=O)O)NC(=O)[C@@H]3CCCN3C(=O)[C@H](CC(N)=O)NC(=O)[C@H](CC(N)=O)NC(=O)[C@H](C)NC(=O)[C@H](C)NC(=O)[C@H](CSSC[C@H](NC(=O)CN)C(=O)N2)NC(=O)[C@@H]2CCCN2C(=O)[C@@H]2CCCN2C1=O (H-GCCSLPPCAANNPDYC-NH2; disulfide 2-8, 3-16) | 8.85
* CC(C)C[C@@H]1NC(=O)[C@H](CO)NC(=O)[C@@H]2CSSC[C@@H](C(=O)O)NC(=O)[C@H](Cc3ccc(OS(=O)(=O)O)cc3)NC(=O)[C@H](CC(=O)O)NC(=O)[C@@H]3CCCN3C(=O)[C@H](CC(N)=O)NC(=O)[C@H](CC(N)=O)NC(=O)[C@H](C)NC(=O)[C@H](C)NC(=O)[C@H](CSSC[C@H](NC(=O)CN)C(=O)N2)NC(=O)[C@@H]2CCCN2C(=O)[C@@H]2CCCN2C1=O (H-GCCSLPPCAANNPD[sY]C-OH; disulfide 2-8, 3-16) | 8.33
* CC(C)C[C@@H]1NC(=O)[C@H](CO)NC(=O)[C@@H]2CSSC[C@@H](C(=O)O)NC(=O)[C@H](Cc3ccc(O)cc3)NC(=O)[C@H](CC(=O)O)NC(=O)[C@@H]3CCCN3C(=O)[C@H](CC(N)=O)NC(=O)[C@H](CC(N)=O)NC(=O)[C@H](C)NC(=O)[C@H](C)NC(=O)[C@H](CSSC[C@H](NC(=O)CN)C(=O)N2)NC(=O)[C@@H]2CCCN2C(=O)[C@@H]2CCCN2C1=O (H-GCCSLPPCAANNPDYC-OH; disulfide 2-8, 3-16) | 7.51
* CC(C)C[C@@H]1NC(=O)[C@H](CO)NC(=O)[C@@H]2CSSC[C@@H](C(N)=O)NC(=O)[C@H](Cc3ccc(OS(=O)(=O)O)cc3)NC(=O)[C@H](CC(=O)O)NC(=O)[C@@H]3CCCN3C(=O)[C@H](CC(N)=O)NC(=O)[C@H](CC(N)=O)NC(=O)[C@H](C)NC(=O)[C@H](C)NC(=O)[C@H](CSSC[C@H](NC(=O)CN)C(=O)N2)NC(=O)[C@@H]2CCCN2C(=O)[C@@H]2CCCN2C1=O (H-GCCSLPPCAANNPD[sY]C-NH2; disulfide 2-8, 3-16) | 8.92

* * *

target: Acetylcholine-binding protein (Lymnaea stagnalis, UniProt P58154)
Sequence (P58154 whole entry): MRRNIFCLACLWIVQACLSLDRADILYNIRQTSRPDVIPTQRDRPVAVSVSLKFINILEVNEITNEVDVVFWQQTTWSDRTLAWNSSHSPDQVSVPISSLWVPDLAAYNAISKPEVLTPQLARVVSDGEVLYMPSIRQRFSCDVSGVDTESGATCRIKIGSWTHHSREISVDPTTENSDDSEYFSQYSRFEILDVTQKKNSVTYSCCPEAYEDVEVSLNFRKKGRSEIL
Positions of bridges follow the written chain, without caps; N, C: chain ends. Non-standard residues stand in square brackets, D forms with d. Residues, ends and D or L forms follow the SMILES beside them. sY = N[C@@H](Cc1ccc(OS(=O)(=O)O)cc1)C(=O)O
quantity: Ki (µM)

- CC(C)C[C@@H]1NC(=O)[C@H](CO)NC(=O)[C@@H]2CSSC[C@@H](C(N)=O)NC(=O)[C@H](Cc3ccc(OS(=O)(=O)O)cc3)NC(=O)[C@H](CC(=O)O)NC(=O)[C@@H]3CCCN3C(=O)[C@H](CC(N)=O)NC(=O)[C@H](CC(N)=O)NC(=O)[C@H](C)NC(=O)[C@H](C)NC(=O)[C@H](CSSC[C@H](NC(=O)CN)C(=O)N2)NC(=O)[C@@H]2CCCN2C(=O)[C@@H]2CCCN2C1=O (H-GCCSLPPCAANNPD[sY]C-NH2; disulfide 2-8, 3-16): 3.8
- CC(C)C[C@@H]1NC(=O)[C@H](CO)NC(=O)[C@@H]2CSSC[C@@H](C(N)=O)NC(=O)[C@H](Cc3ccc(O)cc3)NC(=O)[C@H](CC(=O)O)NC(=O)[C@@H]3CCCN3C(=O)[C@H](CC(N)=O)NC(=O)[C@H](CC(N)=O)NC(=O)[C@H](C)NC(=O)[C@H](C)NC(=O)[C@H](CSSC[C@H](NC(=O)CN)C(=O)N2)NC(=O)[C@@H]2CCCN2C(=O)[C@@H]2CCCN2C1=O (H-GCCSLPPCAANNPDYC-NH2; disulfide 2-8, 3-16): 9.12
